Literature roundup of HPK1 (Homo sapiens (Human), UniProt Q92918) data, read-out IC50.

Previously resolved entries follow.
| MOLECULE | TARGET OR TEST SYSTEM | IC50 |
| --- | --- | --- |
| COc1cc2c(cc1Nc1ncc3ccc(-c4cncc(C(=O)N5CCOCC5)c4)cc3n1)CNCC2 | HPK1 (Homo sapiens (Human), UniProt Q92918) | 273 nM |
| Cc1cc(-c2cnc(N)c(Oc3cnn(CCC#N)c3)n2)cc2c1CN(C)CC2 | HPK1 (Homo sapiens (Human), UniProt Q92918) | 48 nM |
| Cc1ccc2c(-c3ccc(Nc4ccc(C5CCOC5)c(CN(C)C)n4)c4c3CNC4=O)cnn2c1 (stereo in doubt) | HPK1 (Homo sapiens (Human), UniProt Q92918) | < 100 nM |

Param readout = IC50; param system = HPK1 (Homo sapiens (Human), UniProt Q92918); param query = "CN(C)Cc1nc(Nc2ccc(-c3cnc4cc(F)ccn34)c3c2C(=O)NC3)ccc1N1CC[C@H](F)[C@@H](O)C1" ; response: value < 100 nM

Param readout = IC50; param system = HPK1 (Homo sapiens (Human), UniProt Q92918); param query = "COc1cccc(-c2cccc3cnc(Nc4cc5c(nc4OC)CCN(C)C5)nc23)c1" ; response: value < 0.1 nM

Param readout = IC50; param system = HPK1 (Homo sapiens (Human), UniProt Q92918); param query = O=c1[nH]ccc2nc(-c3cc(C4CCCN4)ccc3F)cc(Nc3ccc(N4CCC(O)CC4)cn3)c12 (stereo not drawn) ; response: value 100 to 1000 nM

Param readout = IC50; param system = HPK1 (Homo sapiens (Human), UniProt Q92918); param query = "CN1CCC(c2cc(Nc3ccc(N4CCC(O)CC4)cn3)c3c(=O)[nH]ccc3n2)CC1" ; response: value ≤ 100 nM

Param readout = IC50; param system = HPK1 (Homo sapiens (Human), UniProt Q92918); param query = CN1CCN2c3ccc(-c4n[nH]c5cc(C#N)c(-c6cnc7cnn(C)c7c6)cc45)cc3OCC2C1 (stereo not drawn) ; response: value ≤ 10 nM

###

Literature roundup of UniProt Q92918 data, read-out IC50.

Previously resolved entries follow.
| SMILES CODE | IC50 |
| --- | --- |
| Cn1ccc2c(-c3ncc(Nc4ccc([C@@H]5CCOC5)c(CN5CC[C@@H](O)C5)n4)c4c3CNC4=O)ccnc21 | < 100 nM |
| CC(C)(O)[C@H]1COCCN(c2ccc(Nc3ccc(-c4cnc5cc(F)ccn45)c4c3C(=O)NC4)nc2)C1 | < 100 nM |
| C#CC[C@H]1CCC[C@H]1Nc1nc(Nc2cc3c(cc2OC)CCN(C)C3)ncc1C(N)=O | 2.08 nM |

Now let's try a different one.
Param readout = IC50; param system = UniProt Q92918; param query = "CN1CCN(c2ccc(Nc3cnc(-c4ccncc4F)c4c3C(=O)NC4)nc2)CC1" ; response: value 1000 to 5000 nM

###

Literature roundup of HPK1 (Homo sapiens (Human), UniProt Q92918) data, read-out pIC50.
In simple prose, pIC50 is minus the logarithm base ten of a concentration in moles per litre.

Previously resolved entries follow.
| COMPOUND | TARGET OR TEST SYSTEM | EXPERIMENTAL READOUT | OBS VALUE |
| --- | --- | --- | --- |
| COc1cc2c(cc1Nc1ncc(C(N)=O)c(Nc3ccccc3OC(C)C)n1)CN(C)CC2 | HPK1 (Homo sapiens (Human), UniProt Q92918) | pIC50 | 9.59 |
| CCn1cc(Nc2ncc3c(N)c(F)c(-c4cnc5c(c4C)NCCO5)cc3n2)c(C)n1 | HPK1 (Homo sapiens (Human), UniProt Q92918) | pIC50 | 9.00 |
| COc1cc2c(cc1Nc1ncc(C(N)=O)c(Nc3ccccc3Br)n1)CN(C(C)=O)CC2 | HPK1 (Homo sapiens (Human), UniProt Q92918) | pIC50 | 6.61 |
| COc1cc2c(cc1Nc1ncc3ccc(-c4cnccc4Cl)cc3n1)CNCC2 | HPK1 (Homo sapiens (Human), UniProt Q92918) | pIC50 | 7.75 |
| COc1cc2c(cc1Nc1ncc3ccc(-c4cc(F)ccc4CN)cc3n1)CN(C)CC2 | HPK1 (Homo sapiens (Human), UniProt Q92918) | pIC50 | 6.61 |

Now let's try a different one.
Param readout = pIC50; param system = HPK1 (Homo sapiens (Human), UniProt Q92918); param query = COc1cc2c(cc1Nc1ncc(C(N)=O)c(NC3CCc4cccc(OC)c43)n1)CN(C)CC2 (centres unmarked) ; response: value 8.02

###

pIC50: −log10 of the molar value.
Literature roundup of HPK1 (Homo sapiens (Human), UniProt Q92918) data, read-out pIC50.

Previously resolved entries follow.
| COMPOUND | pIC50 |
| --- | --- |
| CN1CCN(c2ccc3nc(-c4c(N)c5cscc5[nH]c4=O)[nH]c3c2)CC1 | ≥ 7.30 |
| Cc1nc2c(N3CCC[C@H]3CN)c(NC(=O)c3ccc(=O)n(-c4c(F)cccc4F)n3)ccc2n1C | > 7.00 |
| CC(C)c1nc2c(N3CC(F)(F)C[C@H]3CN)c(NC(=O)c3ccc(=O)n(-c4c(F)cccc4F)n3)cc(F)c2n1C | > 7.00 |
| COCCn1ncc2c(N3C[C@@H](C)[C@@H](N)C3)c(NC(=O)c3ccc(=O)n(-c4c(F)cccc4F)n3)ccc21 | > 7.00 |
| C[C@@H]1CN(c2ccc3nc(-c4c(N[C@H]5CCCC[C@H]5O)c5ccsc5[nH]c4=O)[nH]c3c2)C[C@H](C)O1 | 6.30 to 7.30 |
| COc1cc2c(cc1Nc1ncc3c(N)cc(-c4cncc(N)c4C)cc3n1)CN(C)CC2 | 9.03 |
| CN1CCN2c3ccc(-c4n[nH]c5cc(C#N)c(-c6ncccc6F)cc45)cc3OCC2C1 (stereo not shown) | ≥ 8.00 |
| COc1cc2c(cc1Nc1ncc(C(N)=O)c(Nc3ccccc3-c3cc(C)no3)n1)CN(C)CC2 | 8.03 |

State the recorded pIC50 for this entry: "Cc1cccc(F)c1Nc1nc(Nc2ccc(S(C)(=O)=O)cc2)ncc1C(N)=O" 7.09

###

Literature roundup of HPK1 (Homo sapiens (Human), UniProt Q92918) data, read-out IC50.

Previously resolved entries follow.
| MOLECULE | OBS VALUE |
| --- | --- |
| COc1cccc(F)c1-n1nc2c(-c3ccc(N4CCOCC4)nc3)n[nH]c2cc1=O | ≤ 50 nM |
| CNC1CCN(c2ccc(Nc3ccc(-c4ccnc5[nH]ccc45)c4c3C(=O)NC4)nc2)CC1 | < 100 nM |
| COc1cc2c(cc1Nc1ncc(C(N)=O)c(Nc3cccc(Cl)c3F)n1)CN(C)CC2 | 0.65 nM |
| CN1CCN(c2ccc(Nc3cnc(-c4cn(C)c5ncccc45)c4c3C(=O)NC4)nc2)CC1 | > 1000 nM |
| Cc1cc(-c2cnc(N)c(OCc3ccncc3OC(C)C)n2)cc2c1CCN(C)C2 | 7.6 nM |
| CC(C)n1nnc2c(N3C[C@@H](C)[C@@H](N)C3)c(NC(=O)c3ccc(=O)n(-c4c(F)cccc4F)n3)ccc21 | < 100 nM |
| Cc1c(-c2cc3nc(Nc4ccc(C5(C#N)CC5)cc4)ncc3c(N)c2F)cnc2c1NCCO2 | 0.382 nM |

Now let's try a different one.
State the recorded IC50 for this entry: COCC1CN(c2ccc(Nc3ccc(-c4cnc5cnccn45)c4c3C(=O)NC4)nc2)CCO1 (stereo in doubt) < 100 nM

###

Literature roundup of HPK1 (Homo sapiens (Human), UniProt Q92918) data, read-out pIC50.
In simple prose, pIC50 is minus the logarithm base ten of a concentration in moles per litre.

State the recorded pIC50 for this entry: "Cc1cc(-c2cnc(N)c(OCc3c(Cl)cccc3Cl)n2)cc2c1CCN(C)C2" 6.64

State the recorded pIC50 for this entry: COc1cc2c(cc1Nc1ncc(C(N)=O)c(Nc3cccc(C(C)N)c3)n1)CN(C)CC2 (stereo not shown) 9.60

State the recorded pIC50 for this entry: "COc1cc2c(cc1Nc1ncc3ccc(-c4ccc(NC(C)=O)nc4)cc3n1)CNCC2" 7.34

###

Literature roundup of UniProt:Q92918 data, read-out pIC50.
In simple prose, pIC50 is minus the logarithm base ten of a concentration in moles per litre.

| MOLECULE | pIC50 |
| --- | --- |
| Cc1c(-c2cc3nc(Nc4cnn(C5COC5)c4)ncc3c(N)c2F)cnc2c1NCCO2 | 10.29 |
| Cc1c(-c2cc3nc(Nc4ccc(C(C)S(C)(=O)=O)cc4)ncc3cc2F)cnc2c1NCCO2 (single isomer, unassigned) | 9.17 |

Now let's try a different one.
State the recorded pIC50 for this entry: "Cc1cc(-c2cnc(N)c(OCc3ccnc(C#CC(C)(C)C)c3)n2)cc2c1CCN(C)C2" 7.21
